Attribute: IC50 at 2 days
# ASSAY_REMARKS: Crystal violet cytotoxicity test in A375 cells without light activation
# Assay type: cell-based, human
# CONDITION_DESCRIPTION: human; crystal violet assay, 2 days of exposure, without light activation; read-out: IC50 (μM), cytotoxicity to A375 cancer cells
Express it in µM; write the number only.

1) CN1/C(=C/C=C/C=C/C=C/C2=[N+](CCCCCC(=O)O)c3ccc4ccccc4c3C2(C)C)C(C)(C)c2c1ccc1ccccc21 ... 2

# ---- query compound ----
Exam item: Bench note: what IC50 at 2 days did "CN1/C(=C/C=C/C=C/C=C/C2=[N+](CCCCCCN)c3ccc4ccccc4c3C2(C)C)C(C)(C)c2c1ccc1ccccc21" show?
Marked response: 2.88

---

// log10(IC50 at 2 days) lookup, one value per entry
# ASSAY_REMARKS: Crystal violet cytotoxicity test in A375 cells without light activation
# Format: cell-based, human
# CONDITION_DESCRIPTION: human
In plain terms, each number is the log10 of measured IC50 at 2 days in nM.

Exam item: I'd like to know its log10(IC50 at 2 days). The compound in question is "CN(C)CCCCCC[N+]1=C(/C=C/C2=CC(=C/C=C3/N(C)c4ccc5ccccc5c4C3(C)C)/CCC2)C(C)(C)c2c1ccc1ccccc21.[I-]"
Marked response: 2.88

Exam item: Find the recorded log10(IC50 at 2 days) belonging to CN(C)CC[N+]1=C(/C=C/C2=CC(=C/C=C3/N(C)c4ccc5ccccc5c4C3(C)C)/CC(C(C)(C)C)C2)C(C)(C)c2c1ccc1ccccc21 (centres unmarked) and report it.
Marked response: 2.48

Exam item: Fill in the blank: the reported log10(IC50 at 2 days) of "CN(C)CC[N+]1=C(/C=C/C=C/C=C/C=C2/N(C)c3ccc4ccccc4c3C2(C)C)C(C)(C)c2c1ccc1ccccc21" is ____.
Marked response: 2.70

Exam item: Give the measured log10(IC50 at 2 days) of "COC(=O)C(/C=C/C=C1/N(C)c2ccc3ccccc3c2C1(C)C)=C(C)\C=C\C1=[N+](CCCCCCN(C)C)c2ccc3ccccc3c2C1(C)C" .
Marked response: 3.00

Exam item: Reported log10(IC50 at 2 days) for "CN1/C(=C/C=C/C=C/C=C/C2=[N+](CCCCCC[N+](C)(C)C)c3ccc4ccccc4c3C2(C)C)C(C)(C)c2c1ccc1ccccc21" : what is it?
Marked response: 3.85

---

# Test system: A375 cancer cells (melanoma)
# ASSAY_REMARKS: Crystal violet cytotoxicity test in A375 cells without light activation
# Type: cell-based, human
# CONDITION_DESCRIPTION: crystal violet assay, 2 days of exposure, without light activation; read-out: IC50 (μM), cytotoxicity to A375 cancer cells
ATTRIBUTE_MEASURED: IC50 (µM)
Quick note: give the figure in µM, leave out the unit.

Exam item: # value lookup — system A375 cancer cells (melanoma), readout IC50, item "CN1/C(=C/C=C2C=C(/C=C/C3=[N+](C)c4ccc5ccccc5c4C3(C)C)CCC/2)C(C)(C)c2c1ccc1ccccc21"
Marked response: 0.125

---

# Tested on: A375 cancer cells (melanoma)
# ASSAY_REMARKS: Crystal violet cytotoxicity test in A375 cells without light activation
# Assay type: cell-based, human
ATTRIBUTE_MEASURED: IC50
Be sure to follow the number with its unit.

// solved cases for IC50 follow
1) C[N+]1=C(/C=C/C2=CC(=C/C=C3/N(CCCCCC(=O)NCCCCCCN)c4ccc5ccccc5c4C3(C)C)/CCC2)C(C)(C)c2c1ccc1ccccc21.Cl.[Cl-] [Cy7.5-amine, Cyanine 7.5-amine] ... 500 nM
2) C[N+]1=C(C=CC=CC=C2N(CCCCCC(=O)NCCCCCCN)c3ccccc3C2(C)C)C(C)(C)c2ccccc21 [Cy5-amine] ... 8000 nM
3) C[N+]1=C(/C=C/C=C/C=C2/N(CCCCCC(=O)NCCCCCCN)c3ccc4ccccc4c3C2(C)C)C(C)(C)c2c1ccc1ccccc21.Cl.[Cl-] [Cy5.5-amine] ... 2000 nM
4) CN1/C(=C/C=C/C=C/C=C/C2=[N+](C)c3ccc4ccccc4c3C2(C)C)C(C)(C)c2c1ccc1ccccc21 [GL-176] ... 250 nM

Exam item: Record request: IC50 value, item C[N+]1=C(/C=C/C2=CC(=C/C=C3/N(CCCCCC(=O)NCCCCCCN)c4ccccc4C3(C)C)/CCC2)C(C)(C)c2ccccc21 [Cy7-amine]
Marked response: 2000 nM
